Values compiled from patent US8138206B2.

# collection of pIC50 values tested on UniProtKB Q9Y5N1
# Sequence (Q9Y5N1 whole entry): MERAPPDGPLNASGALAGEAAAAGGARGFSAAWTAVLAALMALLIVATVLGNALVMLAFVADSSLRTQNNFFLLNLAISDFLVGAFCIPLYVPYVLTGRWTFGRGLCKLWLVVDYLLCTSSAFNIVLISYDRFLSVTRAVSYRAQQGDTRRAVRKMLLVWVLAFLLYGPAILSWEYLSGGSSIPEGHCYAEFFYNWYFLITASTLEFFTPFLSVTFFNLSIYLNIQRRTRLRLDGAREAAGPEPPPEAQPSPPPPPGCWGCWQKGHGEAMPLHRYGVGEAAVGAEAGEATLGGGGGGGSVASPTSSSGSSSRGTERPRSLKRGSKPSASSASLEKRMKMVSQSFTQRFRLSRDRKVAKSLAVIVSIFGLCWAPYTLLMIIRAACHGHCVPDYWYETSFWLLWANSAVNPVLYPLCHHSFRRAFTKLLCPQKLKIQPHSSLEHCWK
Counter-ions that a name gives are not always drawn.
In textbook form, pIC50 equals minus log to base ten of the concentration in mol/L.

# compound, pIC50
rows = [
    ("O=C1OC2(CCN(c3ccc(OCCCN4CCCCC4)cc3)CC2)CN1c1ccncc1", 9.03),
]

(Q) Endpoint output: pIC50 of COc1ccc(N2CC3(CCN(c4ccc(OC5CCN(C6CCC6)CC5)cc4)CC3)OC2=O)cn1 . Value?
(A) 10.05

(Q) Then CC(C)N1CCC(Oc2ccc(N3CCC4(CC3)CN(c3cnccn3)C(=O)CO4)cc2)CC1 ?
(A) 8.97

(Q) Now this one: O=C1COC2(CCN(c3ccc(OCCCN4CCCCC4)cc3)CC2)CN1c1ccccc1
(A) 8.38

(Q) Thanks! And COc1ccc(C2(O)CCN(c3ccc(OCCCN4CCCCC4)cc3)CC2)cc1 [Example 2-6, trifluoroacetate] ?
(A) 8.52

###

assay: Test for brain/cerebrospinal fluid transition; format: in vivo; settings: cerebrospinal fluid; SD male rat; 2 hours after the oral administration (10 mg/kg); read-out: test compound concentration in the cerebrospinal fluid
reported_property: concentration at 2 h

(Q) Which concentration at 2 h value belongs to O=C1COC2(CCN(c3ccc(OCCCN4CCCCC4)cc3)CC2)CN1c1ccccc1 ?
(A) 74 nM
